Experiment: Test for measuring solubility (Test Example 2, saturated solution by HPLC)
Type: physicochemical
Conditions: simulated gastric fluid, thermodynamic from solid; pH 1.2 Buffer solution (1st fluid for dissolution test); 4 g in 20 ml, room temperature; read-out: Saturated solution concentration
Description: The “dihydrochloride salt” was precisely weighed in the amounts indicated in Table 2, and 20 ml each of the solvent was added to the weighed samples. The samples were shaken for one hour at room temperature. […] Each of the saturated solutions was analyzed by HPLC, and the concentration of the saturated solution was calculated from the peak area.
readout kind: solubility thermodynamic at 1 h

The compound listed as Cc1n[nH]c2cc(OCCNC[C@H](O)c3cccc(NS(C)(=O)=O)c3)ccc12.Cl.Cl [dihydrochloride salt] has a reported solubility thermodynamic at 1 h of 97.8 mg/mL

----------
Answer each item with its documented solubility thermodynamic at 1 h.
test: Test for measuring solubility (Test Example 1, saturated solution by HPLC); type: physicochemical; conditions: aqueous buffer, thermodynamic from solid; pH 6.8 Buffer solution (phosphate buffer solution); room temperature; read-out: Saturated solution concentration
Give bare numbers, in mg/mL.

| compound | measurement units | solubility thermodynamic at 1 h |
| --- | --- | --- |
| Cc1n[nH]c2cc(OCCNC[C@H](O)c3cccc(NS(C)(=O)=O)c3)ccc12.Cl.Cl [dihydrochloride salt] | mg/mL | 210 |

Next:
The compound listed as Cc1n[nH]c2cc(OCCNC[C@H](O)c3cccc(NS(C)(=O)=O)c3)ccc12.Cl [monohydrochloride salt, reference compound] has a reported solubility thermodynamic at 1 h of 23.7

----------
experiment: Test for measuring solubility (Test Example 1, saturated solution by HPLC); format: physicochemical; conditions: saline or isotonic, thermodynamic from solid; Physiological saline; room temperature, shaken one hour; read-out: Saturated solution concentration
readout kind: solubility thermodynamic at 1 h (mg/mL)
One number for each entry, in mg/mL.

| compound | solubility thermodynamic at 1 h [mg/mL] |
| --- | --- |
| Cc1n[nH]c2cc(OCCNC[C@H](O)c3cccc(NS(C)(=O)=O)c3)ccc12.Cl.Cl [dihydrochloride salt] | 125 |

The compound listed as Cc1n[nH]c2cc(OCCNC[C@H](O)c3cccc(NS(C)(=O)=O)c3)ccc12.Cl [monohydrochloride salt, reference compound] has a reported solubility thermodynamic at 1 h of 32.2

----------
assay: Test for measuring solubility (Test Example 2, saturated solution by HPLC); type: physicochemical; conditions: aqueous buffer, thermodynamic from solid; pH 4.0 Buffer solution (0.05 mol/L acetic acid/sodium acetate); 4 g in 20 ml, room temperature; read-out: Saturated solution concentration
readout kind: solubility thermodynamic at 1 h (mg/mL)
One number for each entry, in mg/mL.

The molecule listed as Cc1n[nH]c2cc(OCCNC[C@H](O)c3cccc(NS(C)(=O)=O)c3)ccc12.Cl.Cl [dihydrochloride salt] has a reported solubility thermodynamic at 1 h of 147

----------
assay: Test for measuring solubility (Test Example 2, saturated solution by HPLC); format: physicochemical; details: thermodynamic from solid; Water; 5 g in 20 ml, room temperature; read-out: Saturated solution concentration
readout kind: solubility thermodynamic at 1 h

The compound listed as Cc1n[nH]c2cc(OCCNC[C@H](O)c3cccc(NS(C)(=O)=O)c3)ccc12.Cl.Cl [dihydrochloride salt] has a reported solubility thermodynamic at 1 h of 143 mg/mL

----------
experiment: Blood concentration measurement test (AUC after oral enteric capsule); type: in vivo, male beagle dogs; details: dog; male beagle dogs, fasting, oral enteric capsule, 1 mg/kg as free form; compound 1 free form measured in blood plasma; read-out: AUCinf mean
Answer each item with its documented AUC(0-inf).

| compound | AUC(0-inf) |
| --- | --- |
| Cc1n[nH]c2cc(OCCNC[C@H](O)c3cccc(NS(C)(=O)=O)c3)ccc12.Cl.Cl [dihydrochloride salt] | 1390 ng·h/mL |

Next:
The compound listed as Cc1n[nH]c2cc(OCCNC[C@H](O)c3cccc(NS(C)(=O)=O)c3)ccc12.Cl [monohydrochloride salt, reference compound] has a reported AUC(0-inf) of 1110 ng·h/mL

----------
Answer each item with its documented solubility thermodynamic at 1 h.
assay: Test for measuring solubility (Test Example 1, saturated solution by HPLC); format: physicochemical; conditions: simulated gastric fluid, thermodynamic from solid; pH 1.2 Buffer solution (1st fluid for dissolution test); room temperature; read-out: Saturated solution concentration

| compound | solubility thermodynamic at 1 h |
| --- | --- |
| Cc1n[nH]c2cc(OCCNC[C@H](O)c3cccc(NS(C)(=O)=O)c3)ccc12.Cl.Cl [dihydrochloride salt] | 128 mg/mL |

Next:
The compound listed as Cc1n[nH]c2cc(OCCNC[C@H](O)c3cccc(NS(C)(=O)=O)c3)ccc12.Cl [monohydrochloride salt, reference compound] has a reported solubility thermodynamic at 1 h of 73.5 mg/mL

----------
test: Test for measuring solubility (Test Example 2, saturated solution by HPLC); assay type: physicochemical; settings: saline or isotonic, thermodynamic from solid; Physiological saline; 5 g in 20 ml, room temperature; read-out: Saturated solution concentration
readout kind: solubility thermodynamic at 1 h (mg/mL)
Give bare numbers, in mg/mL.

The compound listed as Cc1n[nH]c2cc(OCCNC[C@H](O)c3cccc(NS(C)(=O)=O)c3)ccc12.Cl.Cl [dihydrochloride salt] has a reported solubility thermodynamic at 1 h of 98.8
